- target-system: Xanthine dehydrogenase/oxidase (Bos taurus)
- Sequence (P80457 whole entry): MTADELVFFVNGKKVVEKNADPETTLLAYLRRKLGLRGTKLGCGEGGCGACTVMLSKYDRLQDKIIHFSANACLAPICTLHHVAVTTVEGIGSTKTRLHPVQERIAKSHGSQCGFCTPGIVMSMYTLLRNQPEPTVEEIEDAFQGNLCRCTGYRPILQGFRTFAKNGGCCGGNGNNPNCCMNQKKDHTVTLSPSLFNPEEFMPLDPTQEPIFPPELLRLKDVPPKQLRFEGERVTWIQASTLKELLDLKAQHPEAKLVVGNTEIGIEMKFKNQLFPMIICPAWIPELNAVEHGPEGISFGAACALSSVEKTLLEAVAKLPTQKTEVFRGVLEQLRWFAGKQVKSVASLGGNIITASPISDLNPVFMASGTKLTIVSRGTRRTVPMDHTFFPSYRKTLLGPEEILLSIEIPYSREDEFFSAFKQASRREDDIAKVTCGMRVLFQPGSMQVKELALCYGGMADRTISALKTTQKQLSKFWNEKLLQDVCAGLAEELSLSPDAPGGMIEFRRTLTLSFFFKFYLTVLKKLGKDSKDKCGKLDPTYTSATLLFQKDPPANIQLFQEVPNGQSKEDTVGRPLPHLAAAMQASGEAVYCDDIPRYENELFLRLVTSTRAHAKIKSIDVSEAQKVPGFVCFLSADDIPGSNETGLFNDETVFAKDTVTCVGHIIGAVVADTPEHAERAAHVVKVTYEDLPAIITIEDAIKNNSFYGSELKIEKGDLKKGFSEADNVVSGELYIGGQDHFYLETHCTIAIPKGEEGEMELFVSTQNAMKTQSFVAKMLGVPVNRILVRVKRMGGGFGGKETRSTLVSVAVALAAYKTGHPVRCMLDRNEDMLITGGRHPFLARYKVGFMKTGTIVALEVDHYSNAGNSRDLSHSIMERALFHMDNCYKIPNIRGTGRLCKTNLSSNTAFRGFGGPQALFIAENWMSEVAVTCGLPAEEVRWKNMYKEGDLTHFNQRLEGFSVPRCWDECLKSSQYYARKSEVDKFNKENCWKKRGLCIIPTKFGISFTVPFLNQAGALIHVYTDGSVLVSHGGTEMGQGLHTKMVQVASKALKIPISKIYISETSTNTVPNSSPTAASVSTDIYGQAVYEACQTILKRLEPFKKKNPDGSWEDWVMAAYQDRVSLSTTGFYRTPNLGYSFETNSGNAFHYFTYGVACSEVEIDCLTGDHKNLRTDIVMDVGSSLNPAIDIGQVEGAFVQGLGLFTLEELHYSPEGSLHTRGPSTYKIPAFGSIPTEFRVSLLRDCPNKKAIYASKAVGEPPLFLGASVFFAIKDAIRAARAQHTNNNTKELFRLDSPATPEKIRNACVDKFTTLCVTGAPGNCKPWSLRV
pIC50: −log10 of the molar value.
Lab note: anything with pIC50 at or over 7 counts as YES; the rest go in NO.

> print(dat)
                    structure.smiles                             target.system  class.label
1  CC(C)=COc1ccc(-c2nccc(O)n2)cc1C#N  Xanthine dehydrogenase/oxidase (Bos taurus)          YES

Lookup: Is it the case that N#Cc1cc(-c2nc(N)cc(O)n2)ccc1OCC1CCCCC1 has pIC50 reaching or exceeding 7?
Found: NO

Lookup: Is it the case that N#Cc1cc(-c2ncccn2)ccc1OCC1CCCCC1 has pIC50 reaching or exceeding 7?
Found: NO

Lookup: Is it the case that COc1ccc(COc2ccc(-c3nccc(O)n3)cc2C#N)cc1 has pIC50 reaching or exceeding 7?
Found: NO
